# procedureText: Cytotoxicity against multi drug-resistant human KBVIN cells by sulforhodamine B assay
# Format: functional
# conditionsUsed: read-out: ED50 (the source's name)
recordedEndpoint: EC50 (µM)
Your answer should be a plain number; it is taken to be in µM.

QUERY: Using the record for CC[C@@]1(O)C(=O)OCn2c1cc1c(c2=O)Cc2c-1nc1ccccc1c2/C=N/CCC(=O)O[C@@H](C(=O)O[C@H]1C[C@@]2(O)[C@@H](OC(=O)c3ccccc3)[C@@H]3[C@]4(OC(C)=O)CO[C@@H]4C[C@H](O)[C@@]3(C)C(=O)[C@H](OC(C)=O)C(=C1C)C2(C)C)[C@@H](NC(=O)c1ccccc1)c1ccccc1 , report its EC50.
RESULT: 0.0624

QUERY: Using the record for COc1cc([C@@H]2c3cc4c(cc3[C@@H](NCc3ccc(C(=O)O[C@H]5C[C@H]6OC[C@@]6(OC(C)=O)[C@H]6[C@H](OC(=O)c7ccccc7)[C@]7(O)C[C@H](OC(=O)[C@H](O)[C@@H](NC(=O)c8ccccc8)c8ccccc8)C(C)=C([C@@H](OC(C)=O)C(=O)[C@]56C)C7(C)C)cc3)[C@H]3COC(=O)[C@H]23)OCO4)cc(OC)c1O , report its EC50.
RESULT: 5.2

QUERY: Using the record for COc1cc([C@@H]2c3cc4c(cc3[C@@H](/N=C/c3ccc(C(=O)O[C@H]5C[C@H]6OC[C@@]6(OC(C)=O)[C@H]6[C@H](OC(=O)c7ccccc7)[C@]7(O)C[C@H](OC(=O)[C@H](O)[C@@H](NC(=O)c8ccccc8)c8ccccc8)C(C)=C([C@@H](OC(C)=O)C(=O)[C@]56C)C7(C)C)cc3)[C@H]3COC(=O)[C@H]23)OCO4)cc(OC)c1O , report its EC50.
RESULT: 6.22

Every entry's value here was drawn from ChEMBL document CHEMBL1139194.
